molecular target: Threonyl-tRNA synthase (Phytophthora sojae, UniProt G3FIN0); assay: Inhibition of C-terminal His6-tagged Phytophthora sojae race 1 recombinant ThrRS expressed in Escherichia coli BL21 (Codonplus DE3) assessed as reduction in initial velocity at the step of threonine activation preincubated for 10 min with 4 uM enzyme before threonine addition measured after 30 min by HPLC analysis
Sequence (G3FIN0 whole entry): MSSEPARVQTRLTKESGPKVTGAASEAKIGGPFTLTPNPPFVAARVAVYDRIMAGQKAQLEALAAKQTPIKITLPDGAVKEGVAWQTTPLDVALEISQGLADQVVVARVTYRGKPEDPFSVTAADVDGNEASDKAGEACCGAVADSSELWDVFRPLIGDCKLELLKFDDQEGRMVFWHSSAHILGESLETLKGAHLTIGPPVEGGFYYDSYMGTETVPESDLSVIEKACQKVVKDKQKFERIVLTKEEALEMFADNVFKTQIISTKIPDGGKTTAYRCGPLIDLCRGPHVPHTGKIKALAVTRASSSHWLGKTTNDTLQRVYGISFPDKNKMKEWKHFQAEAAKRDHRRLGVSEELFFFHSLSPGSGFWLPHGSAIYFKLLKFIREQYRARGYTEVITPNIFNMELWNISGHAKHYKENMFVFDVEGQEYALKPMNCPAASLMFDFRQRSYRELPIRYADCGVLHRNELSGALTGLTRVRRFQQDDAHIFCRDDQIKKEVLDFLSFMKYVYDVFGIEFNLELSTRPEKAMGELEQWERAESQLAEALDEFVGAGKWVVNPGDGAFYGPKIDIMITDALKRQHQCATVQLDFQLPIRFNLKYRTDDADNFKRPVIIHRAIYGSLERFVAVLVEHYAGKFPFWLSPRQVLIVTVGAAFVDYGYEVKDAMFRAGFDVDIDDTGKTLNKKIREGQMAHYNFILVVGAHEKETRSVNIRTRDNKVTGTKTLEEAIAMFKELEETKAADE
reportedProperty: pIC50
One number for each entry, as −log10 of the molar value.

Query string: Which pIC50 value is on record for C[C@@H]1C[C@H](C)C[C@H](C)[C@@H](O)CC(=O)O[C@H]([C@@H]2CCC[C@H]2C(=O)O)C/C=C/C=C(/C#N)[C@H](O)[C@@H](C)C1 ?
Result string: 5.10
